# Assay notes: Selectivity index, ratio of CC50 for human Huh-7 cells to IC50 for West Nile virus lineage 1 (Italy/2009) infected in pre-seeded Huh-7 cells assessed as inhibition of viral replication incubated for 48 hrs by immunodetection based direct yield reduction assay
# Assay type: toxicity, cell-based
# Run parameters: read-out: Selectivity Index
hey, just use Yes if measured selectivity ratio at 48 h is less than 30, otherwise No

| Record smiles | Classification |
| --- | --- |
| CC(C)OC(=O)[C@H](C)N[P@](=O)(OC[C@H]1O[C@@H](n2ccc(=O)[nH]c2=O)[C@](C)(F)[C@@H]1O)Oc1ccccc1 | No |
| Fc1cccc(/N=N/c2nc(NCCOc3ccccc3)nc3[nH]cnc23)c1 | Yes |
| Fc1cccc(NNc2nc(NCCOc3ccccc3)nc3[nH]cnc23)c1 | Yes |
| OCCNc1nc(Nc2cccc(C(F)(F)F)c2)c2nc[nH]c2n1 | Yes |

# input for lookup
INPUT: Threshold test, selectivity ratio at 48 h < 30: NC(=O)c1ncn([C@@H]2O[C@H](CO)[C@@H](O)[C@H]2O)n1
OUTPUT: Yes
